Assay: In vivo toxicity / maximum tolerated dose in healthy BALB/c mice
Details: BALB/c, mouse, in vivo, subcutaneous
Procedure: Mice were euthanized if their body weight reached a 20% loss. Toxicological studies were carried out including in vitro cell viability experiments and in vivo survivability studies (FIGS. 8A to 8B and FIG. 9A, respectively). The in vitro cell viability studies were carried out in both MM S model (for experimental details see Manier, S, et al., Science Translational Medicine 2017, 9, 389) and KMS11 flank cancer model. […]
Value kind: MTD at 4 weeks
In your response, put the unit directly after the numeric value.

**Query** Suppose we examine the compound CC(C)C[C@H](NC(=O)[C@H](Cc1ccccc1)NC(=O)c1cnccn1)B(O)O [Btz, bortezomib] ; what MTD at 4 weeks value has been reported?
**Result** 0.75 mg/kg
